- systemUnderTest: MERTK (Homo sapiens, UniProt Q12866)
- Sequence (Q12866 21-999): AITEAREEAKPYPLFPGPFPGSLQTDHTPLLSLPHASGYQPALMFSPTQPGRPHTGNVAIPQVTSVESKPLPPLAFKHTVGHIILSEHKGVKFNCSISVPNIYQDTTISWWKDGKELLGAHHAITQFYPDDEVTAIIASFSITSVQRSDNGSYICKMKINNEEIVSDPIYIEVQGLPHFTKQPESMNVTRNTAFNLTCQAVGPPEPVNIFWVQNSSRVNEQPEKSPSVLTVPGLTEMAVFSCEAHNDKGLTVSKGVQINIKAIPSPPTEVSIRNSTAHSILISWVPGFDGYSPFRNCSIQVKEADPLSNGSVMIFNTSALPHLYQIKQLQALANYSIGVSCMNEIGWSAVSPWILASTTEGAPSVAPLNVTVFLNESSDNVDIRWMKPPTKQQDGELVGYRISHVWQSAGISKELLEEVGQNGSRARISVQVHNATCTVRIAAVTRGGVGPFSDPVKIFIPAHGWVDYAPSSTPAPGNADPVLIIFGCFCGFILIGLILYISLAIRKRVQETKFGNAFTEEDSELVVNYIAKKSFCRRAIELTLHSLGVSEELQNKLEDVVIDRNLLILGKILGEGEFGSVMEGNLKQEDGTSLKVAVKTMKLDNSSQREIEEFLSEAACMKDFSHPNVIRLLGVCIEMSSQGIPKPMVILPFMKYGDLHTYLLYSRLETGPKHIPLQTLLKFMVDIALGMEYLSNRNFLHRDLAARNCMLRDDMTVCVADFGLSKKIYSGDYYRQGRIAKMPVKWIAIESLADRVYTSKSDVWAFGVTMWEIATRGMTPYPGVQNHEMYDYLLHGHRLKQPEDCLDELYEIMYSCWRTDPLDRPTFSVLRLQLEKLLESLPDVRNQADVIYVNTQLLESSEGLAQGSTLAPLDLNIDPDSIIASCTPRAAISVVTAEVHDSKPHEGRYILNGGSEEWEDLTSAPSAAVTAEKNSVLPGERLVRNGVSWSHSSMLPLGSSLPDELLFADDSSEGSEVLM
- measurementDescription: Microfluidic capillary electrophoresis (MCE) kinase activity assay, Mer
- Type: biochemical
- condition: Table 2; MCE assay, ATP at Km
quantityName: IC50

Below, each entry is followed by its recorded IC50 result.
> print(dat)
                                 testsmiles                       systemundertest  quantityname   recordedvalue
1  CCN1CCN(Cc2ccc(-c3cn([C@H]4CC[C@H](O)CC4)c4nc(Nc5cc(F)cc(Cl)c5)ncc34)cc2)CC1  MERTK (Homo sapiens, UniProt Q12866)          IC50         < 10 nM
2  O[C@H]1CC[C@H](n2cc(-c3ccc(CN4CCC(F)(F)CC4)cc3)c3cnc(Nc4cc(F)cc(Cl)c4)nc32)CC1  MERTK (Homo sapiens, UniProt Q12866)          IC50    10 to 100 nM
3  O[C@H]1CC[C@H](n2cc(-c3ccc(CN4CCSCC4)cc3)c3cnc(Nc4cc(F)cc(Cl)c4)nc32)CC1  MERTK (Homo sapiens, UniProt Q12866)          IC50  100 to 1000 nM

Need IC50 for each of these molecules.
1. CN1CCN(Cc2ccc(-c3cn([C@H]4CC[C@H](O)CC4)c4nc(Nc5cccc(C(F)(F)F)c5)ncc34)cc2)CC1
2. CN1CCN(Cc2ccc(-c3cn([C@H]4CC[C@H](O)CC4)c4nc(Nc5cc(F)cc(C(F)(F)F)c5)ncc34)cc2)CC1

output:
1. < 10 nM
2. < 10 nM
